biological target: hemagglutinin (HA) of influenza A/Brisbane/10/07 (H3N2) (influenza A virus A/Brisbane/10/07 (H3N2)); test: cell-based or functional assay
// reported VNA IC50 for each item listed
Enter your answer as a number in nM; do not include the unit.

binder	outcome measure	measure unit	endpoint result
SD3029 (VHH) VHH: EVQLVESGGGLVQPGGSLRLSCAVSISIFDIYAMDWYRQAPGKQRDLVATSFRDGSTNYADSVKGRFTISRDNAKNTLYLQMNSLKPEDTAVYLCHVSLYRDPLGVAGGLGVYWGKGALVTVSS	VNA IC50	nM	632
SD3096 (VHH) VHH: EVQLLESGGGLVQPGGSLRLSCAASGRTYAMGWFRQAPGKEREFVAHINALGTRTYYADSVKGRFTISRDNSKNTVYLQMNSLRPEDTAVYYCTAQGQWRAAPVAVAAEYEFWGQGTLVTVSS	VNA IC50	nM	26
SD3089 (VHH) VHH: EVQLVESGGGVVQPGGSLRLSCAASISIFDIYAMHWYRQAPGKQRELVSVSFRDGSTYYADSVKGRFTISRDNSKNTLYLQMNSLRAEDTAVYYCHVSLYRDPLGVAGGLGVYWGQGTLVTVSS	VNA IC50	nM	1190
SD3013 (VHH) VHH: EVQLVESGGGVVQPGGSLRLSCAASISIFDIYAMDWYRQAPGKQRELVATSFRDGSTYYADSVKGRFTISRDNSKNTLYLQMNSLRAEDTAVYLCHVSLYRDPLGVAGGMGVYWGKGALVTVSS	VNA IC50	nM	318
SD3067 (VHH) VHH: EVQLVESGGGLVQPGGSLRLSCAASGRTLSIYSMGWFRQAPGKEREFVATIGWNSGRTFYPDSLKGRFTISRDNSKNTLYLQMNSLRAEDTAVYYCAAAKGPLRLSSQADYWGQGTLVTVSS	VNA IC50	nM	3
SD3098 (VHH) VHH: EVQLLESGGGLVQPGGSLRLSCAASGRTYAMGWFRQAPGKEREFVAAINALGTRTYYADSVKGRFTISRDNSKNTLYLQMNSLRPEDTAVYYCTAQGQWRAAPVAVAAEYEFWGQGTLVTVSS	VNA IC50	nM	4
SD3030 (VHH) VHH: EVQLVESGGGLVQPGGSLRLSCAVSISIFDIYAMDWYRQAPGKQRDLVATSFRDGSTNYADSVKGRFTISRDNAKNTLYLQMNSLKPEDTAVYLCHVSLYRDPLGVAGGIGVYWGKGALVTVSS	VNA IC50	nM	274

Please report the recorded VNA IC50 for SD3025 (VHH) VHH: EVQLLESGGGLVQPGGSLRLSCAASGRTYAMSWFRQAPGKEREFVAHINALGTRTYYADSVKGRFTISRDNSKNTLYLQMNSLRAEDTAVYYCTAQGQWRAAPVAVAAEYEFWGQGTQVTVSS .
160
